All values here come from patent US20090233950A1.

# Target Of Assay: KDR (VEGFR2) (Homo sapiens, UniProt P35968)
# Construct: phosphorylation of KDR expressed in human umbilical vein endothelial cells (HUVECs)
# Sequence (P35968 20-1356): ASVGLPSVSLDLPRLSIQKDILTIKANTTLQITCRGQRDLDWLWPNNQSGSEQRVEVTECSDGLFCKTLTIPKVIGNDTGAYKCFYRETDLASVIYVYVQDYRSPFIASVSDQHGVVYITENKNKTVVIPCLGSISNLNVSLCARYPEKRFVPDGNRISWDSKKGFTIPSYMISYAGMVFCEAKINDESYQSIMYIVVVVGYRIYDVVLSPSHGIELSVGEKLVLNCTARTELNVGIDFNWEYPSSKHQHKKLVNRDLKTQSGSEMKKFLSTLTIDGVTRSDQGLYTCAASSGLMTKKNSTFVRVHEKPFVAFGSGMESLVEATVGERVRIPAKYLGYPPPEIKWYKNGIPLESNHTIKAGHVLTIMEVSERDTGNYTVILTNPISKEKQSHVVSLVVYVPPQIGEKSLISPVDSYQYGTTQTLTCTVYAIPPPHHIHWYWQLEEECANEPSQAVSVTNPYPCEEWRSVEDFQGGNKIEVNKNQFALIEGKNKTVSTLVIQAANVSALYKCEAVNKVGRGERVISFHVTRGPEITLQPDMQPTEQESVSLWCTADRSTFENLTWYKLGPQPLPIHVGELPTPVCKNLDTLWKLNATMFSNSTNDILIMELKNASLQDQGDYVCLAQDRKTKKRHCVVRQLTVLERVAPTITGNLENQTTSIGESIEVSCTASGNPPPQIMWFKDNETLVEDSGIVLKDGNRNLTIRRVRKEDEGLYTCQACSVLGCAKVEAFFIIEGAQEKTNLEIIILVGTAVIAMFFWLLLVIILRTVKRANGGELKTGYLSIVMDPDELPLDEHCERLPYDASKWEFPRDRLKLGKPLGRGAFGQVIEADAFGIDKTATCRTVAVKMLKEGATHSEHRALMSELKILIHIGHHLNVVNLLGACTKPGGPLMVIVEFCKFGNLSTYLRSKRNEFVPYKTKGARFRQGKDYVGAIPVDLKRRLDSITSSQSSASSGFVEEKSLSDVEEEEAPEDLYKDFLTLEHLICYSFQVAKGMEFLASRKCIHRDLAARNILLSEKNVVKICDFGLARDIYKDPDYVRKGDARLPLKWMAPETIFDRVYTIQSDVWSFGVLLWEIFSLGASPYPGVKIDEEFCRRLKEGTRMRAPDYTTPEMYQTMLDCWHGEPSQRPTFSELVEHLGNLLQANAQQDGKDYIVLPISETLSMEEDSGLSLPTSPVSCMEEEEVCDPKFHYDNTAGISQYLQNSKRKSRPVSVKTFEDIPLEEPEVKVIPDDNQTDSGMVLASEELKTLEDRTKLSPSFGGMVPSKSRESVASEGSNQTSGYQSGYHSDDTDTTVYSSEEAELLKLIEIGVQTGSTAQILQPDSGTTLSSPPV
# Assay Comment: In vitro phospho-KDR ELISA assay (Test (c)), HUVECs stimulated with VEGF
# Test Context: read-out: IC50 versus phospho-tyrosine formation in KDR
pIC50: −log10 of the molar value.
Property Label: pIC50

Study these solved cases before continuing.
COc1cc2ncnc(Oc3ccc(CC(=O)Nc4cc(C)on4)nc3)c2cc1OC: ~6.52
COc1cc2ncnc(Oc3ccc(CC(=O)Nc4nc(C)c(C)s4)nc3)c2cc1OC [Example 1]: ~8.70
COc1cc2ncnc(Oc3cnc(CC(=O)Nc4cnn(C(C)C)c4)c(OC)c3)c2cc1OC [Example 8]: < 5.30

Now examine the next entry.
Request: Which value of pIC50 has been reported for CCn1cc(NC(=O)Cc2ncc(Oc3ncnc4cc(OC)c(OC)cc34)cc2OC)cn1 [Example 7] in the records?
Response: < 5.52

###

# Target Of Assay: PDGFRβ (Homo sapiens, UniProt P09619)
# Construct: endogenous in cells
# Sequence (P09619 33-1106): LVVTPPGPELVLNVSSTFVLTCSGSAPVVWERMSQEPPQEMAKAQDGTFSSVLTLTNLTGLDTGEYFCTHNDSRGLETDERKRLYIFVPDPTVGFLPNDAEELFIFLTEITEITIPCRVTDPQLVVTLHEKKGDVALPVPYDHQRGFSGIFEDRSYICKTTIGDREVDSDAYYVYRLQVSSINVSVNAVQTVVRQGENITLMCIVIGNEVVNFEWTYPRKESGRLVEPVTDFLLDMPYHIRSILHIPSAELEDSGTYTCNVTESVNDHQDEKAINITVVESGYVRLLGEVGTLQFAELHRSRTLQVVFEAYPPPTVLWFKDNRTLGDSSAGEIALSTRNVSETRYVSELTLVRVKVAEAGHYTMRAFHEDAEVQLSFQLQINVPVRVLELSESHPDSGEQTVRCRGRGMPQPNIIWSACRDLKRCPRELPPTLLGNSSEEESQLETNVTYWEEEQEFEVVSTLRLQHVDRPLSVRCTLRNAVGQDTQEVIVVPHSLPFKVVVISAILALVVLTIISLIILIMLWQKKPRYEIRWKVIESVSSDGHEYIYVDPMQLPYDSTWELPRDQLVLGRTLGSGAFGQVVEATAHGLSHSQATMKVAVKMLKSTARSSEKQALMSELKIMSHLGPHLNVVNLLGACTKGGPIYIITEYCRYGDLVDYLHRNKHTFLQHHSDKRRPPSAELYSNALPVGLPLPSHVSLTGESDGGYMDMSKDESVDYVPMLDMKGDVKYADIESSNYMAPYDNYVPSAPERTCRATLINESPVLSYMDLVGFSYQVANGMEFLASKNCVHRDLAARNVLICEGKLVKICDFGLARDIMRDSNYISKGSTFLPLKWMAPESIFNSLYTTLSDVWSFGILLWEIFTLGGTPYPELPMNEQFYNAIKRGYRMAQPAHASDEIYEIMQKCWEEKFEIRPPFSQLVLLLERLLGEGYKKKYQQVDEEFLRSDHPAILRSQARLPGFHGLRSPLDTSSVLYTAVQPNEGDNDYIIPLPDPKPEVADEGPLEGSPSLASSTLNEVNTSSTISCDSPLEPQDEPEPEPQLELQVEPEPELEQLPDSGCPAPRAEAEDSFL
# Assay Comment: In vitro phospho-Tyr751 PDGFRβ ELISA assay (Test (b)), MG63 osteosarcoma cells stimulated with PDGFBB
# Test Context: read-out: IC50 versus phospho-Tyr751 formation in PDGFRβ
pIC50: −log10 of the molar value.
Property Label: pIC50

Solved entries (count: 4):
COc1cc2ncnc(Oc3ccc(CC(=O)Nc4cc(C)on4)nc3)c2cc1OC: ~7.60
COc1cc2ncnc(Oc3cnc(CC(=O)Nc4cnn(C(C)C)c4)c(OC)c3)c2cc1OC: ~8.30
CCn1cc(NC(=O)Cc2ncc(Oc3ncnc4cc(OC)c(OC)cc34)cc2OC)cn1: ~8.00
COc1cc2ncnc(Oc3ccc(CC(=O)Nc4nc(C)c(C)s4)nc3)c2cc1OC: ~8.30

Please find the next compound below.
Request: Any idea what pIC50 was measured for CCn1cc(NC(=O)Cc2ccc(Oc3ncnc4cc(OC)c(OC)cc34)cn2)cn1 ?
Response: ~7.60
